molecular target: Dopamine D4 receptor (D4R) (Homo sapiens); construct: signal peptide […]; host or cells: HEK293; assay type: cell-based; conditions: HEK293, Rap1GAP (SSS-AAA)-RlucII, rGFP-CAAX, Gz, read-out: EC50, Gz activation
Sequence (P21917 whole entry): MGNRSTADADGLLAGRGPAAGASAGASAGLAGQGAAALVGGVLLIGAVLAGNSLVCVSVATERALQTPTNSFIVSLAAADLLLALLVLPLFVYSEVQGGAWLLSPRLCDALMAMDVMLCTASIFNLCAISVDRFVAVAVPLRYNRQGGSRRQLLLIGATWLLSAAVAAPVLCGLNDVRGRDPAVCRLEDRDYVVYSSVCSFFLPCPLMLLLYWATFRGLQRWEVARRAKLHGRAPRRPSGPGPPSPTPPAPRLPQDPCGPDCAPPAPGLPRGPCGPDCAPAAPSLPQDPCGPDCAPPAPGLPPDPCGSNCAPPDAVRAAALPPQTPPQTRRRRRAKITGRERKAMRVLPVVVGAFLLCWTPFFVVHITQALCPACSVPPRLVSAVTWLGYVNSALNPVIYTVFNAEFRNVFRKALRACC
propertyLabel: EC50 (nM)
Give just the number in nM; leave the unit off.

[ask] Requested read-out EC50, target or system Dopamine D4 receptor (D4R) (Homo sapiens), entry Cc1cccc(NC(=O)CN2CCC(c3ccccn3)CC2)c1 [A412,997]
[reply] 0.04

###

molecular target: thromboxane receptor (TPαR) (Homo sapiens, UniProt P21731); construct: host or cells: HEK293; test: TPαR-mediated G13 activation at the PM, PDZRG-RlucII BRET; format: cell-based
propertyLabel: G13 activation, agonist character in words

O=C(O)CCC/C=C\C[C@@H]1[C@@H](/C=C/[C@@H](O)COc2ccc(I)cc2)[C@H]2CC[C@@H]1O2 [I-BOP] :: full agonists
CCCCC[C@H](O)/C=C/[C@@H]1[C@@H](C/C=C\CCCC(=O)O)[C@H]2CO[C@@H]1C2 [U46619] :: full agonists
CCCCC[C@H](O)/C=C/[C@H]1CC2CC(C2)[C@@H]1C/C=C\CCCC(=O)O [CTA2] :: full agonists

###

target: D3R (Homo sapiens); experiment: Gz activation by D3R, Rap1GAP (SSS-AAA)-RlucII translocation to PM (BRET); conditions: HEK293, Rap1GAP (SSS-AAA)-RlucII, rGFP-CAAX, Gz
Sequence (P35462 whole entry): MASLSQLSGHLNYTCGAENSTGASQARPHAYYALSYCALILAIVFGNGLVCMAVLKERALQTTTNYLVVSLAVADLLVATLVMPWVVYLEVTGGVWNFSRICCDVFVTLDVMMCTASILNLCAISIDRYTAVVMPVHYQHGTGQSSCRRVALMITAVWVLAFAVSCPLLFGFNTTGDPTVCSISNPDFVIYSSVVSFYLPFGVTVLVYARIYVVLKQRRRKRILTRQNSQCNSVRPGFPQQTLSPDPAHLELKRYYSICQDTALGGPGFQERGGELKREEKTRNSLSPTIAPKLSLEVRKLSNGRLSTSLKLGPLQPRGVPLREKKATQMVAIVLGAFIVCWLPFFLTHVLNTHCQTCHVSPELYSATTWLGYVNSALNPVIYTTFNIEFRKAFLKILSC
propertyLabel: EC50 (nM)
Give just the number in nM; leave the unit off.

[ask] Requested read-out EC50, target or system D3R (Homo sapiens), entry Cc1cccc(NC(=O)CN2CCC(c3ccccn3)CC2)c1
[reply] 281

###

target: thromboxane receptor (TPαR) (Homo sapiens, UniProt P21731); construct: host or cells: HEK293; test: TPαR-mediated G15 activation at the PM, P63RG-RlucII BRET; type: cell-based
propertyLabel: G15 activation, agonist character in words

CCCCC[C@H](O)/C=C/[C@@H]1[C@@H](C/C=C\CCCC(=O)O)[C@H]2CO[C@@H]1C2 :: full agonists
O=C(O)CCC/C=C\C[C@@H]1[C@@H](/C=C/[C@@H](O)COc2ccc(I)cc2)[C@H]2CC[C@@H]1O2 :: full agonists
CCCCC[C@H](O)/C=C/[C@H]1CC2CC(C2)[C@@H]1C/C=C\CCCC(=O)O :: full agonists

###

Target: thromboxane receptor (TPαR) (Homo sapiens, UniProt P21731)
Construct: host or cells: HEK293
Sequence (P21731 1-343): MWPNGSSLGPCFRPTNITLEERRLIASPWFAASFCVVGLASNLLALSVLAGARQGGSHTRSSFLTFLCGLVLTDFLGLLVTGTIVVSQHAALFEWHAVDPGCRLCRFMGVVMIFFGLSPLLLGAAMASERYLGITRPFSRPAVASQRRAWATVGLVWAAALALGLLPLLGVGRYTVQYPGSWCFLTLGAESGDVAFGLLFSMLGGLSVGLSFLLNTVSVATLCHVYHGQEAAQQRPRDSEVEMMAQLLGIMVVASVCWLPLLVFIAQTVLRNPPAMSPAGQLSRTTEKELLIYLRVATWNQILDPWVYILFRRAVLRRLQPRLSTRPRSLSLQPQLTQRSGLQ
Assay: TPαR-mediated G14 activation at the PM, P63RG-RlucII BRET
Assay type: cell-based
propertyLabel: G14 activation, agonist character in words

O=C(O)CCC/C=C\C[C@@H]1[C@@H](/C=C/[C@@H](O)COc2ccc(I)cc2)[C@H]2CC[C@@H]1O2 :: full agonists
CCCCC[C@H](O)/C=C/[C@H]1CC2CC(C2)[C@@H]1C/C=C\CCCC(=O)O :: full agonists
CCCCC[C@H](O)/C=C/[C@@H]1[C@@H](C/C=C\CCCC(=O)O)[C@H]2CO[C@@H]1C2 :: full agonists

###

target: thromboxane receptor (TPαR) (Homo sapiens); construct: host or cells: HEK293; test: TPαR-mediated Gq activation at the PM, P63RG-RlucII BRET; type: cell-based
propertyLabel: Gq activation, agonist character in words

CCCCC[C@H](O)/C=C/[C@@H]1[C@@H](C/C=C\CCCC(=O)O)[C@H]2CO[C@@H]1C2 [U46619] :: full agonists
CCCCC[C@H](O)/C=C/[C@H]1CC2CC(C2)[C@@H]1C/C=C\CCCC(=O)O [CTA2] :: full agonists
O=C(O)CCC/C=C\C[C@@H]1[C@@H](/C=C/[C@@H](O)COc2ccc(I)cc2)[C@H]2CC[C@@H]1O2 [I-BOP] :: full agonists

###

target: thromboxane receptor (TPαR) (Homo sapiens, UniProt P21731); construct: host or cells: HEK293; assay: TPαR-mediated G13 activation at the PM, P115RG-RlucII BRET; assay type: cell-based
propertyLabel: G13 activation, agonist character in words

O=C(O)CCC/C=C\C[C@@H]1[C@@H](/C=C/[C@@H](O)COc2ccc(I)cc2)[C@H]2CC[C@@H]1O2 :: full agonists
CCCCC[C@H](O)/C=C/[C@@H]1[C@@H](C/C=C\CCCC(=O)O)[C@H]2CO[C@@H]1C2 :: full agonists
CCCCC[C@H](O)/C=C/[C@H]1CC2CC(C2)[C@@H]1C/C=C\CCCC(=O)O :: full agonists

###

target: thromboxane receptor (TPαR) (Homo sapiens, UniProt P21731); construct: host or cells: HEK293; assay: TPαR-mediated G12 activation at the PM, P115RG-RlucII BRET; assay type: cell-based
propertyLabel: G12 activation, agonist character in words

CCCCC[C@H](O)/C=C/[C@H]1CC2CC(C2)[C@@H]1C/C=C\CCCC(=O)O [CTA2] :: full agonists
O=C(O)CCC/C=C\C[C@@H]1[C@@H](/C=C/[C@@H](O)COc2ccc(I)cc2)[C@H]2CC[C@@H]1O2 [I-BOP] :: full agonists
CCCCC[C@H](O)/C=C/[C@@H]1[C@@H](C/C=C\CCCC(=O)O)[C@H]2CO[C@@H]1C2 [U46619] :: full agonists

These measurements were taken from patent US20200256869A1.
